The values you see were collected from patent US20240109881A1.

Recorded LVL THP1 HTRF YMIN values for a group of molecules are listed next.
- MEASUREMENT_TARGET: IRAK4 (Homo sapiens, UniProt Q9NWZ3)
- Construct: endogenous in cells; host or cells: THP-1 cells
- Sequence (Q9NWZ3 whole entry): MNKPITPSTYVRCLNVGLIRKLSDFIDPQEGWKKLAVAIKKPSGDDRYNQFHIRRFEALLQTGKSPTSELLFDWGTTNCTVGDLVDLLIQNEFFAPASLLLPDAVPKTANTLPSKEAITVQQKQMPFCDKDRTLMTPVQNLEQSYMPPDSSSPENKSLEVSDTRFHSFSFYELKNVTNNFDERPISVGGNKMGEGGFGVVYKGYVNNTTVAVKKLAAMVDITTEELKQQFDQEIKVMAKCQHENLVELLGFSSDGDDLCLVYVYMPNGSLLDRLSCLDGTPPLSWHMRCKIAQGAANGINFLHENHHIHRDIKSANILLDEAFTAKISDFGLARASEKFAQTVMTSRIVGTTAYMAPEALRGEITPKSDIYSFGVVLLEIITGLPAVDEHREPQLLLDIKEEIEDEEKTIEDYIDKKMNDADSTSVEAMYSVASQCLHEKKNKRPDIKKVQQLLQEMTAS
- ASSAY_EXPLANATION: LVL THP1 HTRF (THP1 Homogeneous Time Resolved Fluorescence)
- Format: cell-based
- ASSAY_SETUP: THP1 cells, 18 h incubation with compound
In your response, the unit should come after the numeric value.

[
  {
    "MOLECULE": "C[C@H](C#N)Nc1cc(-n2ncc3cc(C#N)cnc32)ncc1-n1cc([C@H]2CC[C@H](CCN3CC[C@H]4[C@@H]3CCN4c3ccc(C4CCC(=O)NC4=O)cc3)CC2)nn1 (single isomer, unassigned) [P-325]",
    "MEASUREMENT_TARGET": "IRAK4 (Homo sapiens, UniProt Q9NWZ3)",
    "ENDPOINT": "LVL THP1 HTRF YMIN",
    "VALUE_OBSERVED": "1.6%"
  }
]

Next molecule, LVL THP1 HTRF YMIN to be filled in.
Output LVL THP1 HTRF YMIN of C[C@H](C#N)Nc1cc(-n2ncc3cc(C#N)cnc32)ncc1-n1cc([C@H]2CC[C@H](CCN3CC[C@@H](c4ccc([C@@]5(C)CCC(=O)NC5=O)cc4)C(F)(F)C3)CC2)nn1 (single isomer, unassigned)
6.5%
